Recorded values, source ChEMBL document CHEMBL1201862.

Measured EC50 accompanies every entry in the list below.
Tested on: Streptococcus
Experiment: GAS UMAA2166 growth inhibition – luminescence, BacTiterGlo, counter-screen for streptokinase expression inhibitor project, dose response (AID 1915);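 note: potency for reduction of bacterial viability or growth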
Type: functional, organism-based
The source made the active and inactive calls.

[
  {
    "compound": "COc1cccc(C(=O)Nc2nnc(-c3ccc(F)cc3)o2)c1",
    "result": "5.74 µM (active)"
  },
  {
    "compound": "CCOC(=O)C1=C(Cc2ccc(C)cc2)C(=O)c2ccccc2C1=O",
    "result": "6.91 µM (active)"
  },
  {
    "compound": "CCOC(=O)N1CCN(C(=O)c2ccc3c(c2)N(C)C(=O)/C(=C\\c2ccc(OCC)c(OC)c2)S3)CC1",
    "result": "4.57 µM (active)"
  },
  {
    "compound": "COc1cc([N+](=O)[O-])cc(/C=N/NC(=O)c2ccc(C)nc2)c1O",
    "result": "2.22 µM (active)"
  }
]

Reported EC50 of CC(OC(=O)CC1CCCC1)C(=O)Nc1ccc(S(N)(=O)=O)cc1 (stereo not given) : > 150 µM (not active)

====

Biological target: Replicative DNA helicase DnaB (Mycobacterium tuberculosis, UniProt P9WMR3)
Sequence (P9WMR3 whole entry): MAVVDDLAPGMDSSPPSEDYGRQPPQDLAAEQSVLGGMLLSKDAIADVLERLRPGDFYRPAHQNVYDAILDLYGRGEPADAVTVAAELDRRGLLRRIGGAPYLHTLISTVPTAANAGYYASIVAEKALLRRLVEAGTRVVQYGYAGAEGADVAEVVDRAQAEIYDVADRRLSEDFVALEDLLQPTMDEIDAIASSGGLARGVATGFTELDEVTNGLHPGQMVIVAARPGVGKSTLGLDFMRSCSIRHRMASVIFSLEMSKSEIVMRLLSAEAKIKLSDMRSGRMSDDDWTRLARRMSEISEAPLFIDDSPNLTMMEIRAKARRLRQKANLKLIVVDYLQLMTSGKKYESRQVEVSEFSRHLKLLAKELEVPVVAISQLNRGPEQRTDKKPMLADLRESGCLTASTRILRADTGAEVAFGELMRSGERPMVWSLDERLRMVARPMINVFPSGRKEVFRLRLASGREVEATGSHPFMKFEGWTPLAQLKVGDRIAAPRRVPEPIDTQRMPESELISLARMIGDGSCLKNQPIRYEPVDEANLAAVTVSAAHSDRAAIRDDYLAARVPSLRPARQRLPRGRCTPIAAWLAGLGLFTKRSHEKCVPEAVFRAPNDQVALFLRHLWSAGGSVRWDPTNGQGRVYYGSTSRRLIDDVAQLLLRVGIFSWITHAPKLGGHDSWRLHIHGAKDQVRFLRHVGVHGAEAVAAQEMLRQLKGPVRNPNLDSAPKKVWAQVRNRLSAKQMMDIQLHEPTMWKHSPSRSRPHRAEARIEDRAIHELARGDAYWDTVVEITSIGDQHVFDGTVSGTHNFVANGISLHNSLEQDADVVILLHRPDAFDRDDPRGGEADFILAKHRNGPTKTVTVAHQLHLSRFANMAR
Experiment: DnaB intein splicing inhibitors, dose response, biochemical, cell-free fluorescence (AID 449749)
Assay type: functional
Activity calls are given as the source filed them.
Measured AC50 accompanies every entry in the list below.

[
  {
    "molecule": "CCOC(=O)c1c(C)sc2c1N(C(=O)CCl)c1cc(Cl)ccc1S2",
    "testedTarget": "Replicative DNA helicase DnaB (Mycobacterium tuberculosis, UniProt P9WMR3)",
    "result": "3.1 µM (active)"
  }
]

Reported AC50 of COc1ccc(OCc2cc(C(=O)N3CCCC(OC)C3)no2)c2ccccc12 (stereo not given) : 15 µM (active)

Reported AC50 of CC(C)(C)c1ccc(-n2nc(C#N)c(Cl)cc2=O)cc1 : 0.746 µM (active)

Reported AC50 of O=c1c2ccccc2nc2n1CCC2 [DEOXYVASICINONE] : 13.3 µM (active)

Reported AC50 of O=C(Oc1ccccc1N1C(=O)CCC1=O)c1ccco1 : 6.7 µM (active)
